Target: human Nav1.8 (Homo sapiens (Human))
Sequence (Q9Y5Y9 whole entry): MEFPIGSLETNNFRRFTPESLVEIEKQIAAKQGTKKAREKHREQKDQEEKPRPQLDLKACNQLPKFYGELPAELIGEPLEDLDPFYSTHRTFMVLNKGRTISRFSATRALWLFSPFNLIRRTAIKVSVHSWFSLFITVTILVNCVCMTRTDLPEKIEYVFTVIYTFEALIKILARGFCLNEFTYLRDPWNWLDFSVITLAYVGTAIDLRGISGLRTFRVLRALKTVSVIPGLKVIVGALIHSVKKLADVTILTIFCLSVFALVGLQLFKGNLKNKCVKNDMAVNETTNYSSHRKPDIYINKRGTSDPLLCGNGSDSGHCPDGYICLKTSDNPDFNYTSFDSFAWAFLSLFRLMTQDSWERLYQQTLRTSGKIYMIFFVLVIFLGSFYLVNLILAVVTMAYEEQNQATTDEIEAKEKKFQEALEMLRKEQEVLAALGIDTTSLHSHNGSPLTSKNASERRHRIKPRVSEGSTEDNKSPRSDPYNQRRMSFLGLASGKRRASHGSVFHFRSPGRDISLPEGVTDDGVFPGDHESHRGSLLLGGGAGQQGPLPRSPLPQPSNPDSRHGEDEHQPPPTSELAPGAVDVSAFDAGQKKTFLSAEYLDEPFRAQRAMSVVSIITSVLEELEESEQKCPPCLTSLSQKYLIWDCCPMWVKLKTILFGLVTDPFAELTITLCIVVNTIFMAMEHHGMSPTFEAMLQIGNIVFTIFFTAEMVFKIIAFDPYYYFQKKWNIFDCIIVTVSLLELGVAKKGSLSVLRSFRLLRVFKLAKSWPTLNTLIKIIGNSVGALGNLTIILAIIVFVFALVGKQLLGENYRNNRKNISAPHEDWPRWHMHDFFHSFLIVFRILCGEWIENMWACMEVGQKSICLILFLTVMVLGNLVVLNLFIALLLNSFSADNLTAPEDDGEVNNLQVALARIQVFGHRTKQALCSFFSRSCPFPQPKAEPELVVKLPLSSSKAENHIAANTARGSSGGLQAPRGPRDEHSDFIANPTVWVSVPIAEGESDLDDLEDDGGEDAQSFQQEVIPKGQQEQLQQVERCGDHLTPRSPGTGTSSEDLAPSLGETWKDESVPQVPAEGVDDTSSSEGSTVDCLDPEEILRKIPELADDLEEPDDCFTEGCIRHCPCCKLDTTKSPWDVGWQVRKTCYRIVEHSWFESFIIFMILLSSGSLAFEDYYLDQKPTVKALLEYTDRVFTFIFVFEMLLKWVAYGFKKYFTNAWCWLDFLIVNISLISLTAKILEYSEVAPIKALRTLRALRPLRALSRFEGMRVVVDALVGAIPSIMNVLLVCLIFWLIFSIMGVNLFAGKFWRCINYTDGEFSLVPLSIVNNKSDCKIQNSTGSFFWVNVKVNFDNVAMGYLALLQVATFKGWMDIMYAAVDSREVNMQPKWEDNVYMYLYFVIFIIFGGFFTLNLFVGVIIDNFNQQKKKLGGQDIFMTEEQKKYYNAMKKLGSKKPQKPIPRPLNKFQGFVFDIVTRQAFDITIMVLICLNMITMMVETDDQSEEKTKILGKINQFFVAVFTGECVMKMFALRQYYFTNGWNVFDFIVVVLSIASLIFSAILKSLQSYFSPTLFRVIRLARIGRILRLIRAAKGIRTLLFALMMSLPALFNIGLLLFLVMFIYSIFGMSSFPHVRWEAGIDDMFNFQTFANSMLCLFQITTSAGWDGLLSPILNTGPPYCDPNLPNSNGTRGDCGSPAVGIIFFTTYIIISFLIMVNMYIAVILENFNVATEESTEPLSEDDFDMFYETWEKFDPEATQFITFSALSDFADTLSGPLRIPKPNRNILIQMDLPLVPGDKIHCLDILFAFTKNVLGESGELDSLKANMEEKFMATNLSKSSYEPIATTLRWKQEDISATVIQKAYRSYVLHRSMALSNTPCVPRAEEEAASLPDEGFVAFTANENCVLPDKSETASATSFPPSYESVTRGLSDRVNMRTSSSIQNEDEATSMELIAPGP
Sequence (Q07699 19-218 partner): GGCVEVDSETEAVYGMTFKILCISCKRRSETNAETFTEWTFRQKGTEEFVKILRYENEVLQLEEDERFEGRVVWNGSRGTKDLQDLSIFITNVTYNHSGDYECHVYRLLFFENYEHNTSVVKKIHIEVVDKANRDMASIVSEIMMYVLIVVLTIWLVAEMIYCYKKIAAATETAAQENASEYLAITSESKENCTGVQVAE
Assay: QPatch 48 HTX voltage-clamp electrophysiology, half inactivation state (V1/2) protocol, HEK293-Nav1.8 cells
Format: cell-based
Details: HEK293 cells expressing human Nav1.8, human Navβ1 and human TREK1, P2 current
Procedure: Human embryonic kidney 293 cells (HEK293) expressing human Nav1.8, human Navβ1 and human TREK1 (HEK293-Nav1.8) were grown in T150 cell culture flasks at 37° C., 5% CO2 incubator. HEK293-Nav1.8 were passaged every 2-3 days when confluency reached 80-90% in T150 cell culture flasks. […] To assess current run-down over the course of the experiment vehicle-only wells were utilized and the normalized current with vehicle-only (n.IVEH) was determined. […]
Label Condition met for high-side Nav1.8, pIC50 (at or above 7) and Condition not met for low-side Nav1.8, pIC50 (below it).

O=C1c2cc(F)c(C(F)(F)F)cc2N2CN1c1ccc(=O)[nH]c1NCCCc1c2ccc(F)c1F [Example 92] | Condition met

Ask | Dear colleague, could you confirm whether Cl.N#Cc1cc2c(cc1F)C(=O)N1CN2c2ccc(OC(F)(F)F)cc2CNCCc2[nH]c(=O)ccc21 [Example 88] has Nav1.8, pIC50 at or above 7?
Reply | Condition met

Ask | Please tell me: is the compound Cl.O=C1c2cc(F)c(F)cc2N2CN1c1ccc(=O)[nH]c1CCNCc1c2ccc(OC(F)(F)F)c1F [Example 87] at or over 7 in terms of Nav1.8, pIC50?
Reply | Condition met

Ask | Could you verify whether the entry Cl.O=C1c2cc(F)c(F)cc2N2CN1c1ccc(=O)[nH]c1CCNCc1cc(F)ccc12 [Example 53] shows Nav1.8, pIC50 of no less than 7?
Reply | Condition not met

Ask | Is the recorded value of Nav1.8, pIC50 equal to or greater than 7 for this compound? Cl.O=C1c2cc(F)c(F)cc2N2CN1c1ccc(=O)[nH]c1CCNCc1c2ccc(Cl)c1F [Example 74]
Reply | Condition met
